assay info: Competitive inhibition of Acinetobacter baumannii 2208 ATCC 19606 FabI using crotonyl-CoA as substrate in presence of NADPH/NADH after 10 mins by fluorescence assay
Parameters: species or system Acinetobacter baumannii ATCC 19606 = CIP 70.34 = JCM 6841
A collection of molecules and their measured Ki

The cases that follow already have their Ki on record.
[[record]]
molecule = "COc1ccc(C2CCN(C(=O)/C=C/c3ccc(NC(C)=O)nc3)C2)cc1 (racemic)"
readout_kind = "Ki"
obs_value = "> 100 µM"

[[record]]
molecule = "COc1ccccc1C1CCN(C(=O)/C=C/c2ccc(NC(C)=O)cc2)C1 (racemic)"
readout_kind = "Ki"
obs_value = "> 50 µM"

[[record]]
molecule = "CC(=O)Nc1ccc(CC(=O)N2CCC(c3ccccc3)C2)cc1 (racemic)"
readout_kind = "Ki"
obs_value = "> 50 µM"


Inquiry: What value of Ki has been recorded for this entry: O=C(Cc1c(F)cccc1Cl)N1CCC(c2ccc3c(c2)OCO3)C1 (racemic)
Reply text: > 100 µM

* * *

assay info: Competitive inhibition of Acinetobacter baumannii 2208 ATCC 19606 FabI using crotonyl-CoA as substrate in presence of NADPH/NADH after 10 mins by fluorescence assay
Parameters: species or system Acinetobacter baumannii ATCC 19606 = CIP 70.34 = JCM 6841
A collection of compounds and their measured Ki

[[record]]
compound = "COc1ccccc1C1CCN(C(=O)Cc2ccc(NC(C)=O)cc2)C1 (racemic)"
obs_value = "> 50 µM"

[[record]]
compound = "CC(=O)Nc1ccc(CC(=O)N2CCC(c3nccs3)C2)cc1 (racemic)"
obs_value = "> 50 µM"


Inquiry: What value of Ki has been recorded for this entry: CC(=O)Nc1ccc(CC(=O)N2CCC(c3ccc4c(c3)OCO4)C2)cc1 (racemic)
Reply text: > 50 µM

Inquiry: What value of Ki has been recorded for this entry: CC(C)S(=O)(=O)c1ccc(CC(=O)N2CCC(c3ccc4c(c3)OCO4)C2)cc1 (racemic)
Reply text: > 50 µM

Inquiry: What value of Ki has been recorded for this entry: COc1ccc(C2CCN(C(=O)Cc3ccccc3Cl)C2)cc1 (racemic)
Reply text: > 100 µM

Inquiry: What value of Ki has been recorded for this entry: COc1ccc(C2CCN(C(=O)Cc3ccc(NC(C)=O)cc3)C2)cc1 (racemic)
Reply text: > 50 µM
